Where do the numbers come from? From the supplement of paper PMC6755084.

B1: F1*; the commonest letter at each place (parent)
chain: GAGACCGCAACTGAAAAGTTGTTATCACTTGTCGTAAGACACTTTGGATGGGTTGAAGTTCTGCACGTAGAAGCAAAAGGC

Variants of: B1
procedure-text: fraction ligated after 30 min (ligated reads / total reads); higher = more ligase activity
experimental-conditions: with F1*sub RNA substrate (template-directed ligation), 42 °C
Below, each entry is listed with its recorded fraction ligated.
observable: fraction ligated

change: T23C A37C
quantitative-result: 0.821
//
change: T44C G46A
quantitative-result: 0.778
//
change: T35A A57C
quantitative-result: 0.82
//
change: C28G T44G
quantitative-result: 0.778
//
change: C40A T43G
quantitative-result: 0.801
//
change: T23A A24C
quantitative-result: 0.782
//
change: A24G A36G
quantitative-result: 0.813
//
change: T30C G31T
quantitative-result: 0.823
//
change: A39C A56G
quantitative-result: 0.779
//
change: C28A T32G
quantitative-result: 0.812
//
change: A27T A37C
quantitative-result: 0.818
//
change: C28T C40A
quantitative-result: 0.824
//
change: T32G A56T
quantitative-result: 0.785
